- system-under-test: abscisic acid 8′-hydroxylase CYP707A3 (Arabidopsis thaliana)
- Sequence (Q9FH76 whole entry): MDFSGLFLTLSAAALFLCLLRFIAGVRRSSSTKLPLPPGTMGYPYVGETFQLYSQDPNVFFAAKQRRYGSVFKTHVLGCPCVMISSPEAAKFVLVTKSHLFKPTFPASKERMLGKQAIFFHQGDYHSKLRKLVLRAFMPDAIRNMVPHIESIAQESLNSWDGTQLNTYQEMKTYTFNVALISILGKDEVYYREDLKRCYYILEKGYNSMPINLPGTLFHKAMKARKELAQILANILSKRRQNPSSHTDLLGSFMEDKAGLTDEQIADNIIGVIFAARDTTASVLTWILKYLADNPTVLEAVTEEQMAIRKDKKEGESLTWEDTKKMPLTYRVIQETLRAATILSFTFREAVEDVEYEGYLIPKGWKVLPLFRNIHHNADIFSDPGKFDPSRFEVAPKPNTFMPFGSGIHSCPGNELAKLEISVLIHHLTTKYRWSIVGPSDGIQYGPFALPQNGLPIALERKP
- assay-explanation: Abscisic acid 8′-hydroxylase CYP707A3 inhibition test
- Type: biochemical
- study-conditions: CYP707A3 + NADPH-P450 reductase ATR1, substrate ABA, 30° C. 10 minutes; IC50 calculated from two concentrations
experimental-endpoint: potency estimated from few doses (nM)

1 = CCCCOCCOCCOCc1cn(-c2ccc(/C=C(\C(O)C(C)(C)C)n3cncn3)cc2)nn1 (single isomer, unassigned) [Comparative Example 1 (−) Form, reference compound]
2 = CCCCOCCOCCOCC#Cc1cccc(/C=C(\C(O)C(C)(C)C)n2cncn2)c1 (single isomer, unassigned) [Example 2 (−) Form]
3 = COCCOCCOCCOCC#Cc1cccc(/C=C(\C(O)C(C)(C)C)n2cncn2)c1 (single isomer, unassigned) [Example 1 (+) Form]
Q: Your job: order these 3 records by potency estimated from few doses, ascending. Write out the labels following the order that was asked for.
Result: 2, 1, 3
(2: 12 nM, 1: 54 nM, 3: 1200 nM)
